Source listed as the Immune Epitope Database (IEDB).

# system: HLA-C*14:02
# experiment_summary: IEDB peptide-MHC binding, purified MHC/direct/fluorescence; filed as Kd, often an IC50 or EC50 that approximates it; bounds were set here for any values at or beyond the usual limits of such assays
# condition: source organism: Mycobacterium tuberculosis str. Haarlem
result_type: pKd
Give bare numbers, as −log10 of the molar value.

The sequence listed as YTPEQWWPF has a reported pKd of 6.01

* * *

# system: HLA-B*45:01
# experiment_summary: IEDB peptide-MHC binding, purified MHC/competitive/radioactivity; filed as Kd, often an IC50 or EC50 that approximates it; bounds were set here for any values at or beyond the usual limits of such assays
# condition: source organism: Mammarenavirus lassaense
Field: Kd. Provide a value for each of the sequences that follow.
Answers are plain numbers, in µM.

These recorded examples may help you get a feel for the data.
GDVELLGTT :: 16.6
FESYVRPFVA :: 0.151

Could you now consider this next sequence?
Kd reading for SEAQMSIQL : 0.542

* * *

# system: HLA-A*32:01
# experiment_summary: IEDB peptide-MHC binding, purified MHC/competitive/radioactivity; filed as Kd, often an IC50 or EC50 that approximates it; bounds were set here for any values at or beyond the usual limits of such assays
# condition: source organism: Dengue virus 1 Brazil/97-11/1997
result_type: Kd (nM)
One number for each entry, in nM.

KSWGKAKII :: 47.4

Shift focus to the following entry.
Note to self: Kd recorded for KSWPLNEGI was 340

* * *

# system: HLA-A*02:06
# experiment_summary: IEDB peptide-MHC binding, purified MHC/competitive/radioactivity; filed as Kd, often an IC50 or EC50 that approximates it; bounds were set here for any values at or beyond the usual limits of such assays
# condition: source organism: Vaccinia virus WR
result_type: Kd (nM)
One number for each entry, in nM.

# annotated cases, reported Kd shown
IALALEQYGI :: 1130
YLGHSAGFT :: 4550
EVVMAYVGIK :: 15000
NIKPVIVPDI :: 945
CLTVPNITI :: 1660

# batch size: 2; output Kd per entry
1. VQLSNNKYV
2. NLTQLFKYV

1: 214; 2: 657

* * *

# system: HLA-A*69:01
# experiment_summary: IEDB peptide-MHC binding, purified MHC/competitive/fluorescence; filed as Kd, often an IC50 or EC50 that approximates it; bounds were set here for any values at or beyond the usual limits of such assays
# condition: source organism: Orthohantavirus sinnombreense
result_type: Kd

Notebook: GSFRKICGF , Kd read as ≥ 20 µM

* * *

# system: HLA-B*07:02
# experiment_summary: IEDB peptide-MHC binding, purified MHC/direct/fluorescence; filed as Kd, often an IC50 or EC50 that approximates it; bounds were set here for any values at or beyond the usual limits of such assays
# condition: source organism: Orthohantavirus hantanense
result_type: pKd
Answers are plain numbers, as −log10 of the molar value.

Memo: RLKPVGSAY , reported pKd: 6.17

* * *

# system: HLA-A*69:01
# experiment_summary: IEDB peptide-MHC binding, purified MHC/direct/fluorescence; filed as Kd, often an IC50 or EC50 that approximates it; bounds were set here for any values at or beyond the usual limits of such assays
# condition: source organism: Escherichia coli O157:H7 str. EC869
result_type: Kd

Kd reading for YGSWFGLIY : ≥ 20 µM
